Molecular target: hMCHR (MCH receptor) (Homo sapiens)
Construct: (or internally produced); host or cells: CHO (Chinese hamster ovary) cells, membrane preparation
Experiment: MCH Assay PCOP Protocol ([125I]-MCH SPA binding to hMCHR-CHO membranes)
Settings: [125I]-MCH 0.5 nM, hMCHR-CHO membranes; read-out: Activity (ranges of Ki values)
This section presents molecules with their documented Ki values.
Readout: Ki

Molecule: O=C(NCC(CCN1CCC(NC(=O)c2cccs2)CC1)c1ccc(Cl)cc1)Nc1cc(Cl)cc(Cl)c1 (stereo not shown) [Example 216]
Result: 501 to 2500 nM

Molecule: CN(C)CCC(OC(=O)Nc1cc(Cl)cc(Cl)c1)c1ccc(-c2ccncc2)cc1 (stereo not shown) [Example 33]
Result: 501 to 2500 nM

Molecule: CCNC(=O)NC1CCN(CCC(CNC(=O)Nc2cc(Cl)cc(Cl)c2)c2ccc(-c3cccc(C#N)c3)cc2)C1 (stereo not shown) [Example 27]
Result: 501 to 2500 nM

Molecule: O=C(NCC(CCN1CCC(NC(=O)C2CCC2)CC1)c1ccc(Cl)cc1)Nc1cc(Cl)cc(Cl)c1 (stereo not shown) [Example 185]
Result: 51 to 500 nM

Molecule: CCOC(=O)N1CCC(NCCC(CNC(=O)Nc2cc(Cl)cc(Cl)c2)c2ccc(Cl)cc2)CC1 (stereo not shown) [Example 122]
Result: 51 to 500 nM

Molecule: O=C(NCC(CCNC1CCC1)c1ccc(Cl)c(Cl)c1)Nc1ccc(F)c([N+](=O)[O-])c1 (racemic) [Example 22]
Result: 501 to 2500 nM

Molecule: Cc1ccc(C(CCN2CCC(NC(=O)C3CCC3)CC2)CNC(=O)Nc2cc(Cl)cc(Cl)c2)cc1 (stereo not shown) [Example 187]
Result: 51 to 500 nM

----------
Molecular target: hMCHR (MCH receptor) (Homo sapiens, UniProt Q99705)
Construct: (or internally produced); host or cells: CHO (Chinese hamster ovary) cells, membrane preparation
Sequence (Q99705 whole entry): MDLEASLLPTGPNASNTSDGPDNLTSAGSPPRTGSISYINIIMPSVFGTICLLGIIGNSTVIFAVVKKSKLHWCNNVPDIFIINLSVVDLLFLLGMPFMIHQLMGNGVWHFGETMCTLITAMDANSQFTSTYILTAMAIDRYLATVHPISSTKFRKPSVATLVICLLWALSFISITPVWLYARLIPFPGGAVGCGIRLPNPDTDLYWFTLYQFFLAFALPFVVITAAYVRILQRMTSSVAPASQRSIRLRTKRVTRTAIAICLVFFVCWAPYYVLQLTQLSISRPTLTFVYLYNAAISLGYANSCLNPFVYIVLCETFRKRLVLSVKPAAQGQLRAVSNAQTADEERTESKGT
Test: MCH Assay PCOP Protocol ([125I]-MCH SPA binding to hMCHR-CHO membranes);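 on Activity (Ki range): A 0.4–50 nM B 51–500 nM C 501–2500 nM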
Details: [125I]-MCH binding to hMCHR-CHO membranes; class symbols for ranges of Ki; read-out: Activity (Ki range)
pKi: −log10 of the molar value.
Overview of recorded pKi for various compounds

Compound: O=C(NCC(CCNC1CCC1)c1ccc(Cl)c(Cl)c1)Nc1ccc(Cl)c(Cl)c1 (stereo not shown)
pKi: 6.30 to 7.29
//
Compound: O=C(NCC(CCN1CCc2c([nH]c3ccccc23)C1)c1ccc(Cl)c(Cl)c1)c1cc(C(F)(F)F)cc(C(F)(F)F)c1 (stereo not shown)
pKi: 5.60 to 6.30
//
Compound: CCCCN(CCC(CNC(=O)c1cc(C(F)(F)F)cc(C(F)(F)F)c1)c1ccc(Cl)c(Cl)c1)C1CC1 (stereo not shown)
pKi: 5.60 to 6.30
//
Compound: O=C(NCC(CCN1CCNCC1)c1ccc(Cl)c(Cl)c1)Nc1ccc(Cl)c(Cl)c1 (stereo not shown)
pKi: 5.60 to 6.30
//
Compound: O=C(NCC(CCN1CCC(N2CCCCC2)CC1)c1ccc(Cl)c(Cl)c1)Nc1ccc(OC(F)(F)F)cc1 (stereo not shown)
pKi: 5.60 to 6.30
//
Compound: O=C(NCC(CCNC1CCCC1)c1ccc(Cl)c(Cl)c1)Nc1ccc(Cl)c(Cl)c1 (stereo not shown)
pKi: 6.30 to 7.29
//
Compound: O=C(NCC(CCN1CCC(N2CCCCC2)CC1)c1ccc(Cl)c(Cl)c1)Nc1cc(Cl)ccc1Cl (stereo not shown)
pKi: 5.60 to 6.30
//
Compound: CN(C)CCCNCCC(CNC(=O)Nc1cc(Cl)cc(Cl)c1)c1ccc(-c2ccccc2Cl)cc1 (stereo not shown)
pKi: 6.30 to 7.29
//
Compound: CN(C)CCCNCCC(CNC(=O)Nc1cc(Cl)cc(Cl)c1)c1ccc(-c2cccs2)cc1 (stereo not shown)
pKi: 6.30 to 7.29
//
Compound: O=C(NCC(CCNC1CCCC1)c1ccc(-c2ccc(F)cc2)cc1)Nc1cc(Cl)cc(Cl)c1 (stereo not shown)
pKi: 6.30 to 7.29
//
Compound: O=C(NCC(CCN1CCC(N2CCCCC2)CC1)c1ccc(Cl)c(Cl)c1)Nc1ccc(F)c([N+](=O)[O-])c1 (stereo not shown)
pKi: 6.30 to 7.29
//
Compound: O=C(NCC(CCNCC1CCCO1)c1ccc(Cl)c(Cl)c1)c1cc(C(F)(F)F)cc(C(F)(F)F)c1 (stereo not shown)
pKi: 5.60 to 6.30
//
Compound: CCCN(CC)CCC(CNC(=O)Nc1ccc(Cl)c(Cl)c1)c1ccc(Cl)c(Cl)c1 (stereo not shown)
pKi: 6.30 to 7.29
